The origin of these recorded values is ChEMBL document CHEMBL2034949.

Assay Overview: Selectivity ratio of IC50 for RGS8 to IC50 RGS4
Parameter Measured: Ratio IC50
Reply briefly: the number, and no unit.

Solved cases (3 shown):
{"columns": ["Line Notation", "Parameter Measured", "Result"],
 "data": [
  ["CCCCn1sc(=O)n(CCCC)c1=O", "Ratio IC50", 4110],
  ["O=c1sn(-c2ccc(Cl)c(Cl)c2)c(=O)n1Cc1ccccc1", "Ratio IC50", 149],
  ["Cc1ccc(Cn2sc(=O)n(Cc3ccccc3)c2=O)cc1", "Ratio IC50", 2840]
]}

Query: Consider the compound "COc1ccc(-n2sc(=O)n(Cc3ccccc3)c2=O)cc1" and give its measured Ratio IC50.
Reply: 515

Query: // returns reported Ratio IC50 for input "Cc1ccc(-n2sc(=O)n(Cc3ccc(Cl)c(Cl)c3)c2=O)cc1"
Reply: 460

Query: Any idea what Ratio IC50 was measured for "CCn1sc(=O)n(Cc2ccc(F)cc2)c1=O" ?
Reply: 842

----------
Experimental System: Regulator of G-protein signaling 8 (Homo sapiens)
Sequence (P57771 whole entry): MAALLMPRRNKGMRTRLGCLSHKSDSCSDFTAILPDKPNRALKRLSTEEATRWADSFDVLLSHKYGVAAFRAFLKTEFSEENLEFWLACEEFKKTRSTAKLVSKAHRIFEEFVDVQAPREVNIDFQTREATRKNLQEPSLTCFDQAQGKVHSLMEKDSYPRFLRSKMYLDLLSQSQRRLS
Assay Overview: Inhibition of RGS8 interaction with Galpha0 protein by flow cytometry protein interaction assay
Parameter Measured: pIC50
Give only the number. pIC50 is defined as minus log10 of concentration in molar units.

Query: Which measured pIC50 value corresponds to "Cc1ccc(-n2sc(=O)n(Cc3ccc(F)cc3)c2=O)cc1" ?
Reply: 4.96

----------
Experimental System: Regulator of G-protein signaling 4 (Homo sapiens)
Sequence (P49798 whole entry): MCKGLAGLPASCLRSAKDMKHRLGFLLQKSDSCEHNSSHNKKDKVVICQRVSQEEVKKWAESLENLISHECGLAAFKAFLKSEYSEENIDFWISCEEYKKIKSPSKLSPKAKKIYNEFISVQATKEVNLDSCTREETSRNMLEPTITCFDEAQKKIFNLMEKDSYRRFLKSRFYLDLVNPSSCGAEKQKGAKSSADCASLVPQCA
Assay Overview: Inhibition of RGS4 interaction with Galpha0 protein by flow cytometry protein interaction assay
Parameter Measured: pIC50
Please express pIC50 as -log10 of the molar concentration.

{"columns": ["Line Notation", "Result"],
 "data": [
  ["COc1ccc(Cn2c(=O)sn(-c3ccc(C)cc3)c2=O)cc1", 6.75]
]}

Query: Data request, read-out pIC50, for "Cc1ccc(-n2sc(=O)n(Cc3ccc(F)cc3)c2=O)cc1"
Reply: 7.52

----------
Assay Overview: Selectivity ratio of IC50 for RGS8 to IC50 RGS4
Parameter Measured: Ratio IC50
// return a plain number; no unit text

Query: Need Ratio IC50 of "Cn1c(=O)sn(C(C)(C)C)c1=O" , thanks.
Reply: 2020

Query: Recorded Ratio IC50 for "O=c1sn(-c2cccc(Cl)c2)c(=O)n1Cc1ccccc1" , please?
Reply: 335

Query: Recorded Ratio IC50 for "O=c1sn(-c2ccc(Cl)cc2)c(=O)n1Cc1ccccc1" , please?
Reply: 183

Query: Which Ratio IC50 reading was recorded for the compound "O=c1sn(-c2ccccc2)c(=O)n1Cc1ccc(F)cc1" ?
Reply: 380

Query: Give its Ratio IC50 value. Item: "O=c1sn(-c2ccc(Cl)cc2)c(=O)n1Cc1ccc(F)cc1"
Reply: 564

Query: // lookup Ratio IC50 for "CCCCn1c(=O)sn(C(C)(C)C)c1=O"
Reply: 2220

Query: Could you share which Ratio IC50 value was measured for "CCn1sc(=O)n(CCOC)c1=O" ?
Reply: 665

Query: // returns reported Ratio IC50 for input "O=c1sn(-c2ccc(Cl)c(Cl)c2)c(=O)n1Cc1ccc(F)cc1"
Reply: 481

Query: For the compound shown here, "CCCCn1sc(=O)n(C)c1=O" , give the reported Ratio IC50.
Reply: 1210

Query: Would you kindly share the measured Ratio IC50 for "Cc1cccc(-n2sc(=O)n(Cc3ccccc3)c2=O)c1" ?
Reply: 558

Query: Any idea what Ratio IC50 was measured for "O=c1sn(-c2cccc(C(F)(F)F)c2)c(=O)n1Cc1ccc(F)cc1" ?
Reply: 204

Query: GET /values?readout=Ratio IC50&item= "CCCCn1sc(=O)n(CC(C)C)c1=O"
Reply: 2540

Query: Data request, read-out Ratio IC50, for "CCn1sc(=O)n(CC(C)C)c1=O"
Reply: 2680

Query: Fill in: Ratio IC50 of "CCCCn1sc(=O)n(Cc2ccc(F)cc2)c1=O" is ___
Reply: 2020

----------
Assay Overview: Selectivity ratio of IC50 for RGS8 to IC50 RGS4
Recorded Ratio IC50 values for a group of compounds are listed next.
Number only, no unit.

Examples with answers:
{"columns": ["Line Notation", "Parameter Measured", "Result"],
 "data": [
  ["Cc1ccc(Cn2c(=O)sn(-c3ccc(C)cc3)c2=O)cc1", "Ratio IC50", 1340],
  ["CC(C)Cn1c(=O)sn(C(C)(C)C)c1=O", "Ratio IC50", 6660],
  ["Cc1ccc(-n2sc(=O)n(C)c2=O)cc1", "Ratio IC50", 445]
]}

Query: Can you share its Ratio IC50? I mean this compound: "COc1ccc(Cn2c(=O)sn(-c3ccc(C)cc3)c2=O)cc1"
Reply: 1780

Query: Fill in the blank: the reported Ratio IC50 of "Cc1ccc(-n2sc(=O)n(Cc3cccc(C)c3)c2=O)cc1" is ____.
Reply: 679

Query: # lookup: Ratio IC50 of "COc1ccc(-n2sc(=O)n(Cc3ccc(F)cc3)c2=O)cc1"
Reply: 1050

Query: Any idea what Ratio IC50 was measured for "O=c1sn(-c2cccc(Cl)c2)c(=O)n1Cc1ccc(F)cc1" ?
Reply: 245

----------
Assay Overview: Selectivity ratio of IC50 for RGS8 to IC50 RGS4
So basically: Ratio IC50 at 500 or higher? That is rule met. Lower than 500? That is rule not met.

Previously resolved entries follow.
{"columns": ["Line Notation", "Group"],
 "data": [
  ["Cc1ccc(Cn2sc(=O)n(Cc3ccc(F)cc3)c2=O)cc1", "rule met"],
  ["Cc1ccc(-n2sc(=O)n(Cc3ccc(F)cc3)c2=O)cc1", "rule not met"],
  ["Cc1ccc(-n2sc(=O)n(Cc3cccc(Cl)c3)c2=O)cc1", "rule met"],
  ["Cc1ccc(-n2sc(=O)n(CC(C)C)c2=O)cc1", "rule met"]
]}

Query: Hi team, for "O=c1sn(-c2ccccc2)c(=O)n1Cc1ccccc1" , is the recorded Ratio IC50 at or above 500?
Reply: rule not met

Query: Quick check, Ratio IC50 >= 500? "CCn1sc(=O)n(C)c1=O"
Reply: rule met

----------
Parameter: Ratio IC50. Scope: all listed entries.
Assay Overview: Selectivity ratio of IC50 for RGS8 to IC50 RGS4
Respond with the number and no other words.

{"columns": ["Line Notation", "Ratio IC50"],
 "data": [
  ["Cc1cccc(-n2sc(=O)n(Cc3ccc(F)cc3)c2=O)c1", 59],
  ["O=c1sn(-c2cccc(C(F)(F)F)c2)c(=O)n1Cc1ccccc1", 286],
  ["CCCCn1c(=O)sn(-c2ccc(C)cc2)c1=O", 483],
  ["Cc1ccc(-n2sc(=O)n(Cc3ccccc3)c2=O)cc1", 519]
]}

Query: Dear colleague, I am looking for the recorded Ratio IC50 of the following molecule: "Cc1ccc(-n2sc(=O)n(Cc3ccc(Cl)cc3)c2=O)cc1"
Reply: 2170
